Origin of measurements: patent US7879844B2

In what follows, each item is paired with its IC50 for human JAK3 kinase domain (Homo sapiens, UniProt P52333).
VALUE_TYPE: IC50 (nM)

> print(dat)
                                   molecule  value.type  experimental.result
1  N#CCCOC12CC3CC(C1)C(n1[nH]c(=O)c4cnc5[nH]ccc5c41)C(C3)C2 (stereo not drawn)        IC50                  1.3
2  Nc1nnc(-c2cnc3[nH]ccc3c2N[C@H]2C3CC4CC2C[C@@](O)(C4)C3)s1        IC50                 0.17
3  N#CC12CC3CC(C1)C(Nc1c(C(N)=O)cnc4[nH]cnc14)C(C3)C2 (stereo not drawn)        IC50                  2.3
